Biological target: Retinoic acid receptor alpha (Homo sapiens) (UniProt P10276)
Sequence (P10276 whole entry, looked up): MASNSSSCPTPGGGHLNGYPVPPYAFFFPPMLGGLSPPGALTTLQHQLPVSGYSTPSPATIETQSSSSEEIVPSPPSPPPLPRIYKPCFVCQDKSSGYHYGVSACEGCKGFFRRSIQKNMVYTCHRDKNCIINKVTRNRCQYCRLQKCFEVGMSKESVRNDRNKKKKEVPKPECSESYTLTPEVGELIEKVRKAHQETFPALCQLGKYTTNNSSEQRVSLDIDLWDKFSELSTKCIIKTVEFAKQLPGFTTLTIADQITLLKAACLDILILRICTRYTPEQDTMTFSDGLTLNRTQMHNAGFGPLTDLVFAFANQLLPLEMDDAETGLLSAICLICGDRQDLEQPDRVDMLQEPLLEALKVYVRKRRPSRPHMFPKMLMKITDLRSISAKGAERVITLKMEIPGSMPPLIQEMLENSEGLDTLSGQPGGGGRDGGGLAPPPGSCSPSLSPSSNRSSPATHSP
Experiment: ATG_DR5_RAR_CIS: Attagene CIS-FACTORIAL HepG2 Assay for human Retinoic Acid Receptor Alpha (RARE), DR5 submotif (AID 2282934)
Details: HepG2 Attagene cis-factorial RARE DR5 reporter, mRNA; actives raise or lower the signal
Experimental: ATG_CIS is a cell-based, multiplexed-readout assay that uses HepG2, a human liver cell line, with measurements taken at 24 hours after chemical dosing in a 24-well plate.ATG_DR5_RAR_CIS is one of 52 assay component(s) measured or calculated from the ATG_CIS assay. […] This assay endpoint, ATG_DR5_CIS, was analyzed with bidirectional fitting relative to DMSO as the negative control and baseline of activity. […]
The source made the active and inactive calls. Rule for the calls: active = hit-call score of the fitted dose curve at least 0.9, where 1 is the maximum; inactive = score below 0.9.
A correct response names exactly one class from yes (active), no (inactive)

Example cases with answers are listed next.
O=C1NS(=O)(=O)c2ccccc21 :: no
CCOC(=O)CN[C@@H](C(=O)N1CC[C@H]1C(=O)NCc1ccc(/C(N)=N/O)cc1)C1CCCCC1 :: no
CC(=O)Nc1ccc(O)cc1 :: no
CCCCCCCCCCCC(=O)NCCCN(C)C :: no
Cc1ccc(C(=O)c2ccccc2)cc1 :: no

# input for lookup
Task item: In this assay, the call recorded for O=S(=O)(c1ccc(OCc2ccccc2)cc1)c1ccccc1O was what?
Reply: yes
